- TARGET ENTITY: Ba/F3-TPR-MET cells (Homo sapiens, UniProt P08581)
- Construct: fused on or other part: P12270 (Nucleoprotein TPR)
- Sequence (P08581 whole entry, change not shown, the tested form may be a part): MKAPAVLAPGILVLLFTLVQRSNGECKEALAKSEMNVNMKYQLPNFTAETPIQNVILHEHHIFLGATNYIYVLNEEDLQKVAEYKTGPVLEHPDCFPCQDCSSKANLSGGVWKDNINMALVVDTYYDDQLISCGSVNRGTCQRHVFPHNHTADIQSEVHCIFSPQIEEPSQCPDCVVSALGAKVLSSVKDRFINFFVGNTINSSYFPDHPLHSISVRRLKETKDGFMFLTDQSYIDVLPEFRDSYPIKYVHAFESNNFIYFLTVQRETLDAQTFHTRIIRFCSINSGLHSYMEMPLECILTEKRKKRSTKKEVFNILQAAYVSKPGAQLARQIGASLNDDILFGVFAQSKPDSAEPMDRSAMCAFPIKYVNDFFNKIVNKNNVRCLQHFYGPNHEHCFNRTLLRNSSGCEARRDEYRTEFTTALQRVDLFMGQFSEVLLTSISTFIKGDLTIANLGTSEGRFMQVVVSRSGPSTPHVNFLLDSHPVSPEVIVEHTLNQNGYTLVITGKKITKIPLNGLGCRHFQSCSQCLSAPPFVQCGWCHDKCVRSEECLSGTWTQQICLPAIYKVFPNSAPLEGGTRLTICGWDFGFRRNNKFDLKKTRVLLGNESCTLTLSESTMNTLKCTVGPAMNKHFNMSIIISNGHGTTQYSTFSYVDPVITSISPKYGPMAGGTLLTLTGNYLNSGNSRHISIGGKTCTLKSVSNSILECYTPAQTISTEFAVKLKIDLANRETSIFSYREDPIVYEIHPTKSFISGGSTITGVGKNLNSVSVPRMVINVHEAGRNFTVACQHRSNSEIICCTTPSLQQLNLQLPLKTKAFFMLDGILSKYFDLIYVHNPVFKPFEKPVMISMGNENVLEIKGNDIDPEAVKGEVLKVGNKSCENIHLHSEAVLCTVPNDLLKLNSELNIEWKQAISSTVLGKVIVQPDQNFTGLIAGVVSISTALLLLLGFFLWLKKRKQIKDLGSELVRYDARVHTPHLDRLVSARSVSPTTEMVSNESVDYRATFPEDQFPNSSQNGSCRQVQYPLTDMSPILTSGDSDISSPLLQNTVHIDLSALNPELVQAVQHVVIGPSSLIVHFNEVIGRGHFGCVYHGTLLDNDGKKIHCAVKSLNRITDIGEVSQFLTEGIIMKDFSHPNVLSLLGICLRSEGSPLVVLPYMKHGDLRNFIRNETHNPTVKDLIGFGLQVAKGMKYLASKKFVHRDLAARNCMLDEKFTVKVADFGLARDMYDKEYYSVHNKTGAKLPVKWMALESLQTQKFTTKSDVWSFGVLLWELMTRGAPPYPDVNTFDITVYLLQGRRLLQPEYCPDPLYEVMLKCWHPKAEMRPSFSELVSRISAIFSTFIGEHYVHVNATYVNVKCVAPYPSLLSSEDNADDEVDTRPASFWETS
- ASSAY COMMENT: CellTiter-Glo Cell Viability Assay, Ba/F3-TPR-MET
- DETAILS: 72 hours
pEC50: −log10 of the molar value.
REPORTED PROPERTY: pEC50

> print(dat)
                                    molecule           val
 1  CCNCCOc1cc2nccc(Oc3c(F)cc(NC(=O)c4cnccc4OC4CC4)cc3F)c2cc1OC [Example 75]        ≥ 7.00
 2  CNCCOc1cc2nccc(Oc3c(F)cc(NC(=O)c4cnccc4OC[C@H](C)F)cc3F)c2cc1OC [Example 62]        ≥ 7.00
 3  CNCCCOc1cc2nccc(Oc3cc(F)c(NC(=O)c4cnccc4OC)cc3F)c2cc1OC [Example 22]  6.00 to 7.00
 4  CNCCOc1cc2nccc(Oc3c(F)cc(NC(=O)c4cnccc4OCC(F)F)cc3F)c2cc1OC [Example 60]        ≥ 7.00
 5  CNCCOc1cc2nccc(Oc3c(F)cc(NC(=O)c4cnc(F)cc4OC)cc3F)c2cc1OC [Example 44]  6.00 to 7.00
 6  CCOc1ccncc1C(=O)Nc1cc(F)c(Oc2ccnc3cc(OCCCNC)c(OC)cc23)c(F)c1 [Example 21]  6.00 to 7.00
 7  COc1cc2c(Oc3c(F)cc(NC(=O)c4cnccc4OC)cc3F)ccnc2cc1OCC(C)(C)O [Example 39]  6.00 to 7.00
 8  CNCCOc1cc2nccc(Oc3c(F)cc(NC(=O)c4cnccc4OC4COC4)cc3F)c2cc1OC [Example 68]  6.00 to 7.00
 9  COc1cc2c(Oc3c(F)cc(NC(=O)c4cnccc4OC)cc3F)ccnc2cc1OCCCN1CCOCC1 [Example 30]        ≥ 7.00
10  CNCCOc1cc2nccc(Oc3c(F)cc(NC(=O)c4ncccc4OC4CC4)cc3F)c2cc1OC [Example 77]        ≥ 7.00

QUERY: Find the measured pEC50: item CCOc1ccnc(F)c1C(=O)Nc1cc(F)c(Oc2ccnc3cc(OCCCNC)c(OC)cc23)c(F)c1 [Example 119] , target or system Ba/F3-TPR-MET cells (Homo sapiens, UniProt P08581).
RESULT: 6.00 to 7.00

QUERY: Find the measured pEC50: item CNCCOc1ccc2c(Oc3c(F)cc(NC(=O)c4cnc(Cl)cc4OC4CC4)cc3F)ccnc2c1 [Example 113] , target or system Ba/F3-TPR-MET cells (Homo sapiens, UniProt P08581).
RESULT: ≥ 7.00

QUERY: Find the measured pEC50: item COC[C@H](C)Oc1nc2c(Oc3c(F)cc(NC(=O)c4cnccc4OC)cc3F)ccnc2cc1OC [Example 146] , target or system Ba/F3-TPR-MET cells (Homo sapiens, UniProt P08581).
RESULT: ≥ 7.00

QUERY: Find the measured pEC50: item COc1cc2nccc(Oc3c(F)cc(NC(=O)c4cnccc4OC4CC4)cc3F)c2cc1OCCO [Example 107] , target or system Ba/F3-TPR-MET cells (Homo sapiens, UniProt P08581).
RESULT: ≥ 7.00

QUERY: Find the measured pEC50: item CNCCOc1cc2nccc(Oc3ccc(NC(=O)c4cnccc4OC)c(F)c3F)c2cc1OC [Example 14] , target or system Ba/F3-TPR-MET cells (Homo sapiens, UniProt P08581).
RESULT: 6.00 to 7.00

QUERY: Find the measured pEC50: item CNCCOc1ccc2c(Oc3c(F)cc(NC(=O)c4cnc(F)cc4OC4CC4)cc3F)ccnc2c1 [Example 109] , target or system Ba/F3-TPR-MET cells (Homo sapiens, UniProt P08581).
RESULT: ≥ 7.00
